Biological target: AgMyo5
Experiment: SPOT peptide array binding signal intensity (averaged, normalized) (arbitrary units (background-subtracted, floor 0; scale differs between SH3 domains)); higher = stronger binding of the SH3 domain to the peptide
As shown below, each of these binders has a reported SPOT peptide array binding signal intensity value.
measuredQuantity: SPOT peptide array binding signal intensity

{"binder": "WRPRIVPILPYITRL", "qual": "=", "valueObserved": 2.5}
{"binder": "LLIRWLILMPLVGSR", "qual": "=", "valueObserved": 4.5}
{"binder": "HPRFVSPRIPSRIVK", "qual": "=", "valueObserved": 11}
{"binder": "QRKSLRRPTLSKPAV", "qual": "=", "valueObserved": 1.5}
{"binder": "NENKKLPPAPTVFGL", "qual": "≤", "valueObserved": 0}
{"binder": "NSVPIMPTLPPRPYI", "qual": "=", "valueObserved": 71.5}
{"binder": "HKVLRPFLLRRLKKD", "qual": "≤", "valueObserved": 0}
